assay: Cytotoxicity against human RWPE-1 cells assessed as inhibition of cell growth incubated for 5 days by CCK-8 assay; assay type: toxicity, cell-based
test.readout: IC50 at 5 days (nM)
Numbers only, in nM.

Identify IC50 at 5 days associated with the compound CC(C)c1cc(-c2n[nH]c(=O)n2-c2ccc(CN3CCN(CC4CCN(CC5CCN(c6ncc(C(=O)N[C@H]7CC[C@H](Oc8ccc(C#N)c(Cl)c8)CC7)cn6)CC5)CC4)CC3)cc2)c(O)cc1O
241

* * *

tested on: CWR22R; assay: Induction of apoptosis in human 22Rv1 cells assessed as increase in PARP level at 1 uM measured after 48 hrs by Western blot analysis; format: functional, cell-based
The source made the active and inactive calls. The calls are words filed in the database; no cut-off is given here.
A correct response names exactly one class from active, inactive

See these solved cases before continuing.
What outcome does the record of this test show for CC(C)c1cc(-c2n[nH]c(=O)n2-c2ccc(CN3CCN(CC4CCN(c5ccc(C(=O)N[C@H]6CC[C@H](Oc7ccc(C#N)c(Cl)c7)CC6)nn5)CC4)CC3)cc2)c(O)cc1O ?
active

What outcome does the record of this test show for N#Cc1ccc(O[C@H]2CC[C@H](NC(=O)c3cncnc3)CC2)cc1Cl ?
inactive

What outcome does the record of this test show for N#Cc1ccc(O[C@H]2CC[C@H](NC(=O)c3cccnn3)CC2)cc1Cl ?
inactive

***
What outcome does the record of this test show for CC(C)c1cc(-c2n[nH]c(=O)n2-c2ccc(CN3CCN(CC4CCN(CC5CCN(c6ncc(C(=O)N[C@H]7CC[C@H](Oc8ccc(C#N)c(Cl)c8)CC7)cn6)CC5)CC4)CC3)cc2)c(O)cc1O ?
active

* * *

system: LNCaP; test: Induction of apoptosis in human LNCaP cells assessed as increase in PARP level at 1 uM measured after 48 hrs by Western blot analysis; assay type: functional, cell-based
Calls of active or inactive are those of the source. The rule behind the calls is not given here.
A correct response names exactly one class from active, inactive

See these solved cases before continuing.
What outcome does the record of this test show for CC(C)c1cc(-c2n[nH]c(=O)n2-c2ccc(CN3CCN(CC4CCN(c5ccc(C(=O)N[C@H]6CC[C@H](Oc7ccc(C#N)c(Cl)c7)CC6)nn5)CC4)CC3)cc2)c(O)cc1O ?
active

What outcome does the record of this test show for N#Cc1ccc(O[C@H]2CC[C@H](NC(=O)c3cncnc3)CC2)cc1Cl ?
inactive

***
What outcome does the record of this test show for CC(C)c1cc(-c2n[nH]c(=O)n2-c2ccc(CN3CCN(CC4CCN(CC5CCN(c6ncc(C(=O)N[C@H]7CC[C@H](Oc8ccc(C#N)c(Cl)c8)CC7)cn6)CC5)CC4)CC3)cc2)c(O)cc1O ?
active

What outcome does the record of this test show for N#Cc1ccc(O[C@H]2CC[C@H](NC(=O)c3cccnn3)CC2)cc1Cl ?
inactive

* * *

system: LNCaP; assay: Induction of apoptosis in human LNCaP cells assessed as increase in caspase-3 level at 1 uM measured after 48 hrs by Western blot analysis; assay type: functional, cell-based
Active and inactive are the calls of the source. No cut-off for these calls is given here.
test.readout: Activity

Write down measured Activity (LNCaP) for this compound. CC(C)c1cc(-c2n[nH]c(=O)n2-c2ccc(CN3CCN(CC4CCN(c5ccc(C(=O)N[C@H]6CC[C@H](Oc7ccc(C#N)c(Cl)c7)CC6)nn5)CC4)CC3)cc2)c(O)cc1O
Active

Write down measured Activity (LNCaP) for this compound. N#Cc1ccc(O[C@H]2CC[C@H](NC(=O)c3cncnc3)CC2)cc1Cl
inactive

Write down measured Activity (LNCaP) for this compound. CC(C)c1cc(-c2n[nH]c(=O)n2-c2ccc(CN3CCN(CC4CCN(CC5CCN(c6ncc(C(=O)N[C@H]7CC[C@H](Oc8ccc(C#N)c(Cl)c8)CC7)cn6)CC5)CC4)CC3)cc2)c(O)cc1O
Active

Write down measured Activity (LNCaP) for this compound. N#Cc1ccc(O[C@H]2CC[C@H](NC(=O)c3cccnn3)CC2)cc1Cl
inactive
